Measured values drawn from patent US8901133B2 for this set.

- assay_system: PI3Kα (Homo sapiens)
- Sequence (P42336 whole entry): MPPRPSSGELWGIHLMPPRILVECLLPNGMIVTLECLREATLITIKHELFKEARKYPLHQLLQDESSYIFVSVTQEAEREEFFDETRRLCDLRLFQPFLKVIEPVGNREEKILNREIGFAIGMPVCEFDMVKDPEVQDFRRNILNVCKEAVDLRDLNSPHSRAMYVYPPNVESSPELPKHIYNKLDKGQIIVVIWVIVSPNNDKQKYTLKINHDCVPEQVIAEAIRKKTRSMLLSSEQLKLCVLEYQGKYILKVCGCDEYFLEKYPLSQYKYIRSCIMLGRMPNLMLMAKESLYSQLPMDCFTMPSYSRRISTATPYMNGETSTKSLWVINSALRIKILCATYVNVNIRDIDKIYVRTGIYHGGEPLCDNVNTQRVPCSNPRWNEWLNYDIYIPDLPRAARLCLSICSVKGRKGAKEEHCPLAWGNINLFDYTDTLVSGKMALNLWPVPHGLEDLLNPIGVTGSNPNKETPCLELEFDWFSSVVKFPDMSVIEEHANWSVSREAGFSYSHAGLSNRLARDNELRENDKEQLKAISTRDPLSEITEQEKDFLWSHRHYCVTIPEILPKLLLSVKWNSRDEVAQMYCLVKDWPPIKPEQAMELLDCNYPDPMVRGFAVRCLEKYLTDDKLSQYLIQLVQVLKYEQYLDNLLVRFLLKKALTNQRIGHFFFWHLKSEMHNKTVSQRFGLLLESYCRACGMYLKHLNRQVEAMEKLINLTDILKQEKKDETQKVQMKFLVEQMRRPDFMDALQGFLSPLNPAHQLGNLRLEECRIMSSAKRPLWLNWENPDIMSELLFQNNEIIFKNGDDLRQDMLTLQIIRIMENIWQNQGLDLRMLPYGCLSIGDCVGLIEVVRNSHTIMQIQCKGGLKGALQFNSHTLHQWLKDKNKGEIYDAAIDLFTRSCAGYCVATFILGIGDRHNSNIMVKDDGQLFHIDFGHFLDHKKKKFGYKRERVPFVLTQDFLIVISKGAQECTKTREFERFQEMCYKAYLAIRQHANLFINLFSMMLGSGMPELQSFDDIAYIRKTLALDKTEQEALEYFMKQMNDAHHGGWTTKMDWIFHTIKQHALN
- Sequence (P27986 whole entry partner): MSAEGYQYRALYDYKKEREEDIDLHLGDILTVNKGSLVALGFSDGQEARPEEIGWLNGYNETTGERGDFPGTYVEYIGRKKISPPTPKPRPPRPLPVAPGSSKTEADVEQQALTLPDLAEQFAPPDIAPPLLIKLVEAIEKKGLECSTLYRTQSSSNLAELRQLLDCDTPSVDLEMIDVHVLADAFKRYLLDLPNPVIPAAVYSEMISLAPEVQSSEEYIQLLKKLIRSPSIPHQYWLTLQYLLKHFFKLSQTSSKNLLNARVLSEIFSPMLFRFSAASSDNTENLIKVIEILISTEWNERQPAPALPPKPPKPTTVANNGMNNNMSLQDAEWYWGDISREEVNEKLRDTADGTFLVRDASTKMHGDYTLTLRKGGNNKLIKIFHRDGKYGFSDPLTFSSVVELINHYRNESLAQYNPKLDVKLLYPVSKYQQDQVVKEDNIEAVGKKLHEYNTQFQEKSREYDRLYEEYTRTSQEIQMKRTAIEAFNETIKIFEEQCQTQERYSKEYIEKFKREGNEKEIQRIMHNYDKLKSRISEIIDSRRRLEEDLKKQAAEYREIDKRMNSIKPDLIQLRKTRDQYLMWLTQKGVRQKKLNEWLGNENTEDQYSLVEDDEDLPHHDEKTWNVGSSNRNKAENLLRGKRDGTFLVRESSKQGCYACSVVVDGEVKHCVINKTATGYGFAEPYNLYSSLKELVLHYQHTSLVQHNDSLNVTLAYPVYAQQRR
pIC50: −log10 of the molar value.
Known pIC50 of a selection of compounds

{"compound": "C[C@H](Nc1ncnc2cccnc12)c1cc2cccc(-c3cnn(C)c3)c2c(C(=O)N2C3CCC2COC3)n1 [Compound 200]", "pIC50": "< 5.00"}
{"compound": "Cc1nc([C@H](C)Nc2ncnc3[nH]cnc23)cc2cccc(C(=O)N3C4CCC3COC4)c12 [Compound 199]", "pIC50": "< 5.00"}
{"compound": "C[C@H](Nc1ncnc2[nH]cc(C(N)=O)c12)c1cc2cccc(Cl)c2c(C(=O)N2C3CCC2COC3)n1 [Compound 207]", "pIC50": "> 5.00"}
{"compound": "C[C@H](Nc1cc(Cl)nn2ccnc12)c1cc2ccccc2c(CCN2CCOCC2)n1 [Compound 78]", "pIC50": "< 5.00"}
{"compound": "C[C@H](Nc1ncnc2[nH]cnc12)c1cc2cccc(Cl)c2c(CC(=O)N2CCCC2)n1 [Compound 36]", "pIC50": "< 5.00"}
{"compound": "C[C@H](Nc1ncnc2cccnc12)c1cc2cccc(-c3cnn(C)c3)c2c(C(=O)N2CCOCC2)n1 [Compound 187]", "pIC50": "> 5.00"}
{"compound": "C[C@H](Nc1ncnc2[nH]cnc12)c1cc2cccc(Cl)c2c(C(=O)N2C3CCC2COC3)n1 [Compound 16]", "pIC50": "< 5.00"}
{"compound": "C[C@H](Nc1ncnc2cccnc12)c1cc2cccc(Cl)c2c(C(=O)N(C)C)n1 [Compound 224]", "pIC50": "< 5.00"}

###

Measured IC50 accompanies every entry in the list below.
- assay_system: PI3Kδ (Homo sapiens)
- Construct: purchased Millipore Corporation 14-604-K
- Sequence (O00329 whole entry): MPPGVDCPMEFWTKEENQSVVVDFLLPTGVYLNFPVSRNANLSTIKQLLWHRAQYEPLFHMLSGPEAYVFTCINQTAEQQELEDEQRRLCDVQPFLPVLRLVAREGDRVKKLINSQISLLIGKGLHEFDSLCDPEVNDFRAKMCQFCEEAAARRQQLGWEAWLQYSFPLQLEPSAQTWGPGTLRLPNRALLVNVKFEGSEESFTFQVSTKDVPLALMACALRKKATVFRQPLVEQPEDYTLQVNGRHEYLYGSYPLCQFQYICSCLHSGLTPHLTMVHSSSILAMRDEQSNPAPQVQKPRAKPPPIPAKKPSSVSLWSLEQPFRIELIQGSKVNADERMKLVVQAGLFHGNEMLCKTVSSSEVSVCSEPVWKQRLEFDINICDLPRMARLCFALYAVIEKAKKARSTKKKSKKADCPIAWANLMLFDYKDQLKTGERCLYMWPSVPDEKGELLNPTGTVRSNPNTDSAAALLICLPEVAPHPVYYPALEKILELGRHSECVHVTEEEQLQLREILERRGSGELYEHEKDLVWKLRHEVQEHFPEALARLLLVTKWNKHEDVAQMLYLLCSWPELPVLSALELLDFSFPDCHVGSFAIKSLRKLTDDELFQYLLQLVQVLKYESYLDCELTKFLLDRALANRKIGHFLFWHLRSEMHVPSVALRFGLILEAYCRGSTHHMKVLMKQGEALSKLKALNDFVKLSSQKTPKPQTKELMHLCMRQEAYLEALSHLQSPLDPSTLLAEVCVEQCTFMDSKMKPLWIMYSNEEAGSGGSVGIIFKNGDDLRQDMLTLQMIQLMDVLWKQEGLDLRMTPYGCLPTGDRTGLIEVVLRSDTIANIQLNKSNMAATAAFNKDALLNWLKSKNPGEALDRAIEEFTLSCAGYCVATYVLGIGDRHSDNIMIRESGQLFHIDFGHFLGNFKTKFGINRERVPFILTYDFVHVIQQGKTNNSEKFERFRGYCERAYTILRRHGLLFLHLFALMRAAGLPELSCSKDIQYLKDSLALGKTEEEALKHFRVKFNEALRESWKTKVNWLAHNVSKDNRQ
- Sequence (P27986 whole entry partner): as the sequence (P27986 whole entry partner) above
- assay_explanation: PI3 Kinase HTRF assay, PI3Kδ
- Assay type: biochemical
- run_parameters: 10 μM PIP2, 10 μM ATP; read-out: PI3K δ IC50
- Source text: A PI3 Kinase HTRF® assay kit (cat No. 33-016) purchased from Millipore Corporation was used to screen compounds disclosed herein. […] The biotinylated PIP3 and the GST-tagged PH domain recruited fluorophores (Streptavidin-Allophycocyanin and Europium-labeled anti-GST respectively) to form the fluorescence resonance energy transfer (FRET) architecture, generating a stable time-resolved FRET signal. […]

{"compound": "C[C@H](Nc1ncnc2cccnc12)c1cc2cccc(-c3cnn(C)c3)c2c(C(=O)N2CCOCC2)n1 [Compound 187]", "IC50": "< 1000 nM"}
{"compound": "Cc1cccc2cc([C@H](C)Nc3ncnc4cccnc34)nc(C(=O)N3C4CCC3COC4)c12 [Compound 167]", "IC50": "< 100 nM"}
{"compound": "C[C@H](Nc1ncnc2[nH]cnc12)c1nc(CCN2CCOCC2)c2c(Cl)cccc2c1F [Compound 85]", "IC50": "< 1000 nM"}
{"compound": "Cc1cccc2cc([C@H](C)Nc3ncnc4[nH]cnc34)nc(C(=O)N3C4CCC3COC4)c12 [Compound 149]", "IC50": "< 100 nM"}
{"compound": "C[C@H](Nc1ncnc2[nH]cnc12)c1cc2cccc(Cl)c2c(N2CCN(C)CC2)n1 [Compound 46]", "IC50": "< 100 nM"}
{"compound": "C[C@H](Nc1ncnc2scnc12)c1cc2cccc(Cl)c2c(C(=O)N2CCC(O)CC2)n1 [Compound 234]", "IC50": "< 100 nM"}
{"compound": "C[C@H](Nc1cc(Cl)nn2ccnc12)c1cc2ccccc2c(CCN2CCOCC2)n1 [Compound 78]", "IC50": "< 10000 nM"}
{"compound": "C[C@H](Nc1ncnc2scnc12)c1cc2cccc(Cl)c2c(C(=O)N2CCOC[C@H]2C)n1 [Compound 246]", "IC50": "< 1000 nM"}
